- TGT: human hNET (Homo sapiens, UniProt P23975)
- Sequence (P23975 whole entry): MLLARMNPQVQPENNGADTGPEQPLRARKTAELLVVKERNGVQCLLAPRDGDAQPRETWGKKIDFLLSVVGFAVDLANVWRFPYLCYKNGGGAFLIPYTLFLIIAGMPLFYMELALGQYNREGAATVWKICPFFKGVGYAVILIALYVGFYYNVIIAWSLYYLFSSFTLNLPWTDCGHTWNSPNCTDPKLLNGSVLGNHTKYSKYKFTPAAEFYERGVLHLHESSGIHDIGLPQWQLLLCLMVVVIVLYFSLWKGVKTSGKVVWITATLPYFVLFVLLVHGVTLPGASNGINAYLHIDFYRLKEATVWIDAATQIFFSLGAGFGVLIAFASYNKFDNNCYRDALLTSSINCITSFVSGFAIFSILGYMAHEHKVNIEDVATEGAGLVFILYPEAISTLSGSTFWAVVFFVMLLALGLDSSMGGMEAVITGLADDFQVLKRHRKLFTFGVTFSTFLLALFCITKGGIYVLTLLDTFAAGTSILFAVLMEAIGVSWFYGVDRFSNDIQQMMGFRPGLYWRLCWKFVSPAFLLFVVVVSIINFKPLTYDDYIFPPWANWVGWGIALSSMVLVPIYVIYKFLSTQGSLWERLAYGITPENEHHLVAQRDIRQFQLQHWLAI
- MEASUREMENT NOTES: Norepinephrine (NE) uptake assay in MDCK-Net6 cells
- COND: [3H]NE uptake, MDCK-Net6 cells stably transfected with hNET
Structures can show the parent of a compound that is named as a salt.
Here, each record is paired with measured EC50 data.
Give just the number in nM; leave the unit off.

Look up EC50 for this compound: CNC[C@@H](O)[C@H](c1cccc(F)c1)N1C(=O)C2(CCCCC2)c2ccc(F)cc21 [Example 32, hydrochloride] 43

Continuing:
Look up EC50 for this compound: CNC[C@@H](O)[C@H](c1ccccc1)N1CCc2cc(OCc3ccccc3)ccc21 [Example 26, hydrochloride] 45

Look up EC50 for this compound: CNC[C@@H](O)[C@H](c1ccccc1)n1ccc2cc(OCc3ccc(OC)cc3)ccc21 [Example 7, hydrochloride] 32

Look up EC50 for this compound: CNC[C@@H](O)[C@H](c1ccccc1)n1ccc2cc(OCc3cccc(OC)c3)ccc21 [Example 6, hydrochloride] 17

---

- TGT: human hNET (Homo sapiens, UniProt P23975)
- Construct: expressed in transfected cells; host or cells: MDCK (MDCK-Net6)
- MEASUREMENT NOTES: Norepinephrine (NE) uptake assay in MDCK-Net6 cells
- Assay type: cell-based
- COND: at 1 μM; [3H]NE uptake, MDCK-Net6 cells; read-out: hNET Percentage inhibition at 1 μM
Counter-ions that a name gives are not always drawn.
MEASUREMENT NAME: inhibition at 1 µM
A complete answer gives the number and then names the unit.

Below: 6 compounds and their reported inhibition at 1 µM.
Field: inhibition at 1 µM (human hNET (Homo sapiens, UniProt P23975)). Entry: O[C@H](CN1CCCC1)[C@H](c1ccccc1)n1ccc2cc(OCc3ccccc3)ccc21 [Example 89, hydrochloride] 14%

Field: inhibition at 1 µM (human hNET (Homo sapiens, UniProt P23975)). Entry: CC(C)NC[C@@H](O)[C@H](c1ccccc1)n1ccc2cc(OCc3ccccc3)ccc21 [Example 85, hydrochloride] 4%

Field: inhibition at 1 µM (human hNET (Homo sapiens, UniProt P23975)). Entry: CCNC[C@@H](O)[C@H](c1ccccc1)N1C(=O)C2(CCCCC2)c2cc(F)ccc21 [Example 100, hydrochloride] 31%

Field: inhibition at 1 µM (human hNET (Homo sapiens, UniProt P23975)). Entry: CCCNC[C@@H](O)[C@H](c1ccccc1)N1C(=O)C2(CCCCC2)c2cc(F)ccc21 [Example 102, hydrochloride] 0%

Field: inhibition at 1 µM (human hNET (Homo sapiens, UniProt P23975)). Entry: CNC[C@@H](O)[C@H](c1ccccc1)n1ccc2cccc(OCc3ccccc3)c21 [Example 4, hydrochloride] 20%

Field: inhibition at 1 µM (human hNET (Homo sapiens, UniProt P23975)). Entry: CCN(C)C[C@@H](O)[C@H](c1ccccc1)n1ccc2cc(OCc3ccccc3)ccc21 [Example 87, hydrochloride] 16%

// next entry
Field: inhibition at 1 µM (human hNET (Homo sapiens, UniProt P23975)). Entry: CNC[C@@H](O)[C@H](c1ccccc1)n1ccc2cc(OC)ncc21 [Example 45, hydrochloride] 43%

---

Here, each record is paired with measured pEC50 data.
- TGT: human hNET (Homo sapiens, UniProt P23975)
- MEASUREMENT NOTES: Norepinephrine (NE) uptake assay in MDCK-Net6 cells
- COND: [3H]NE uptake, MDCK-Net6 cells stably transfected with hNET
Counter-ions that a name gives are not always drawn.
Please keep in mind that pEC50 is minus log10 of the molar concentration; only the number is needed.

Below: 6 compounds and their reported pEC50.
Look up pEC50 for this compound: CNC[C@@H](O)[C@H](c1ccccc1)N1CCc2cc(NC(=O)c3cccc(Cl)c3)ccc21 [Example 72, hydrochloride] 7.02

Look up pEC50 for this compound: CNC[C@@H](O)[C@H](c1ccccc1)N1CCc2cccc(F)c21 [Example 119, hydrochloride] 7.41

Look up pEC50 for this compound: CNC[C@@H](O)[C@H](c1ccccc1)n1ccc2cc(OCc3ccccc3)ccc21 [Example 1, hydrochloride] 7.74

Look up pEC50 for this compound: CNC[C@@H](O)[C@H](c1cccc(Cl)c1)N1C(=O)C(C)(C)c2cccc(F)c21 [Example 69, hydrochloride] 7.04

Look up pEC50 for this compound: CNC[C@@H](O)[C@H](c1ccccc1)N1C(=O)C2(CCCCC2)c2c1ccc(F)c2F [Example 109, hydrochloride] 6.97

Look up pEC50 for this compound: CNC[C@@H](O)[C@H](c1cccc(F)c1)n1cc(-c2cccc(OC)c2OC)c2ccccc21 [Example 40, hydrochloride] 7.39

// next entry
Look up pEC50 for this compound: CNC[C@@H](O)[C@H](c1ccccc1)n1ccc2cc(O)ccc21 [Example 65, hydrochloride] 7.26

---

- TGT: human 5-HT2A receptor (Homo sapiens, UniProt P28223)
- Sequence (P28223 whole entry): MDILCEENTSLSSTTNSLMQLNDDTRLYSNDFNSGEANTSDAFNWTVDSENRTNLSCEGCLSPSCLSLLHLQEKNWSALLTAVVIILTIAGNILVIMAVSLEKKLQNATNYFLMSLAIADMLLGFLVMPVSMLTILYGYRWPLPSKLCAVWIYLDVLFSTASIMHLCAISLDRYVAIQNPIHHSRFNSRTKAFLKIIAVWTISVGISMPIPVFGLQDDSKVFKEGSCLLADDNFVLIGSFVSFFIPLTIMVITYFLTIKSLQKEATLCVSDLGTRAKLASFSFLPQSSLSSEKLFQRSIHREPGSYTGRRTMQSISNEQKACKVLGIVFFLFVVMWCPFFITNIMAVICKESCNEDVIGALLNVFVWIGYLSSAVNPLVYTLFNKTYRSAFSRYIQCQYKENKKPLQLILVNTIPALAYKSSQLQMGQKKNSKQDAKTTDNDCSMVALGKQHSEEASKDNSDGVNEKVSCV
- MEASUREMENT NOTES: 5-HT2A FLIPR assay (calcium response to DOI) in CHO cells
- COND: antagonist inhibition of 3 nM DOI stimulation, CHO cells, FLIPR
Counter-ions that a name gives are not always drawn.
Criterion: IC50 strictly under 400 nM. Met: 1. Not met: -1.

Past entries and their recorded results:
Strictly below 400 nM in IC50? CNC[C@@H](O)[C@H](c1ccccc1)n1ccc2cc(OCc3ccc(OC)cc3)ccc21 [Example 7, hydrochloride] 1

Strictly below 400 nM in IC50? CN(C)C[C@@H](O)[C@H](c1ccccc1)n1ccc2cc(OCc3ccccc3)ccc21 [Example 86, hydrochloride] 1

Strictly below 400 nM in IC50? CNC[C@@H](O)[C@H](c1ccccc1)n1ccc2cc(OCc3cccc(OC)c3)ccc21 [Example 6, hydrochloride] -1

Strictly below 400 nM in IC50? CNC[C@@H](O)[C@H](c1ccccc1)N1C(=O)C2(CCCCC2)c2cc(C#N)ccc21 [Example 107, hydrochloride] 1

Strictly below 400 nM in IC50? CNC[C@@H](O)[C@H](c1ccccc1)n1ccc2cc(OCc3ccccc3Cl)ccc21 [Example 8, hydrochloride] -1

Strictly below 400 nM in IC50? CCNC[C@@H](O)[C@H](c1ccccc1)N1C(=O)C2(CCCCC2)c2ccc(F)cc21 [Example 96, hydrochloride] -1

Turning now to a further record.
Strictly below 400 nM in IC50? CNC[C@@H](O)[C@H](c1ccccc1)n1ccc2cccc(Oc3ccccc3)c21 [Example 81, hydrochloride] 1

---

- TGT: human hNET (Homo sapiens)
- Construct: expressed in transfected cells; host or cells: MDCK (MDCK-Net6)
- MEASUREMENT NOTES: Norepinephrine (NE) uptake assay in MDCK-Net6 cells
- Assay type: cell-based
- COND: at 1 μM; [3H]NE uptake, MDCK-Net6 cells; read-out: hNET Percentage inhibition at 1 μM
Where a name gives a salt, the structure may show the parent alone.
MEASUREMENT NAME: inhibition at 1 µM (%)
Give just the number in %; leave the unit off.

Look up inhibition at 1 µM for this compound: CNC[C@@H](O)[C@H](c1ccccc1)n1ccc2ccnc(C)c21 [Example 49, hydrochloride] 51

Look up inhibition at 1 µM for this compound: NC[C@@H](O)[C@H](c1ccccc1)N1C(=O)C2(CCCCC2)c2ccc(F)cc21 [Example 95, hydrochloride] 7

Look up inhibition at 1 µM for this compound: CNC[C@@H](O)[C@H](c1ccccc1)n1ccc2c(-c3ccccc3)cccc21 [Example 21, hydrochloride] 56

Continuing:
Look up inhibition at 1 µM for this compound: O=C1N([C@@H](c2ccccc2)[C@H](O)CN2CCOCC2)c2ccc(F)cc2C12CCCCC2 [Example 104, hydrochloride] 13

Look up inhibition at 1 µM for this compound: CN1CCN(C[C@@H](O)[C@H](c2ccccc2)n2ccc3cc(OCc4ccccc4)ccc32)CC1 [Example 91, hydrochloride] 22

Look up inhibition at 1 µM for this compound: CCN(CC)C[C@@H](O)[C@H](c1ccccc1)n1ccc2cc(OCc3ccccc3)ccc21 [Example 88, hydrochloride] 21

Look up inhibition at 1 µM for this compound: CC(C)NC[C@@H](O)[C@H](c1ccccc1)N1C(=O)C2(CCCCC2)c2cc(F)ccc21 [Example 101, hydrochloride] 0

---

Here, each record is paired with measured EC50 data.
- TGT: human hNET (Homo sapiens, UniProt P23975)
- MEASUREMENT NOTES: Norepinephrine (NE) uptake assay in MDCK-Net6 cells
- COND: [3H]NE uptake, MDCK-Net6 cells stably transfected with hNET
Structures can show the parent of a compound that is named as a salt.
Give just the number in nM; leave the unit off.

Look up EC50 for this molecule: CNC[C@@H](O)[C@H](c1ccccc1)n1ccc2cccc(Oc3ccccc3)c21 [Example 81, hydrochloride] 1020

Continuing:
Look up EC50 for this molecule: CNC[C@@H](O)[C@H](c1ccccc1)n1ccc2cc(C(=O)Nc3cccc(Cl)c3)ccc21 [Example 79, hydrochloride] 328

Look up EC50 for this molecule: CNC[C@@H](O)[C@H](c1ccccc1)N1CC2(CCCCC2)c2ccccc21 [Example 33, hydrochloride] 29

Look up EC50 for this molecule: CNC[C@@H](O)[C@H](c1cc(F)cc(F)c1)N1C(=O)C(C)(C)c2cccc(F)c21 [Example 62, hydrochloride] 4
